- studyTarget: IKZF2 (Homo sapiens, UniProt Q96SW2+Q9UKS7)
- Construct: expressed in transfected cells
- Sequence (Q9UKS7 whole entry, one chain of several): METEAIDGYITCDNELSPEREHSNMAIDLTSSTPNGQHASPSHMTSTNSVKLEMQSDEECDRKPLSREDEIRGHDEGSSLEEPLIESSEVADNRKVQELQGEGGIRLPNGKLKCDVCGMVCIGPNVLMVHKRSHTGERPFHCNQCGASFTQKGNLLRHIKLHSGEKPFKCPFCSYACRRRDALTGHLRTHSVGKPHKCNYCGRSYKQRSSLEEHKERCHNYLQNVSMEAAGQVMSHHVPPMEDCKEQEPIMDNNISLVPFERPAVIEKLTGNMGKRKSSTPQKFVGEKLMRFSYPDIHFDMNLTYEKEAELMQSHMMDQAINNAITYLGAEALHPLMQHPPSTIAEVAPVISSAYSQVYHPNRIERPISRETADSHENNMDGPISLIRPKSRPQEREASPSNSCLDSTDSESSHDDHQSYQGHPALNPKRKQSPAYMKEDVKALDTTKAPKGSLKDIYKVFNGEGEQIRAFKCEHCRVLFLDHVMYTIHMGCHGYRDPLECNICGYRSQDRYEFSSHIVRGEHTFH
- assayRemarks: Prolabel quantification of IKZF2 protein levels in 293GT cells
- Format: cell-based
- cond: Pro-label assay in 293GT cells; % degradation is at 10 μM
- Method: The Prolabel system from DiscoverX was used to develop high-throughput and quantitative assays to measure changes in IKZF1, IKZF2 and GSPT1 protein levels in response to compounds. […] The complementary fragment of beta-galactosidase (from DiscoverX), is added to the prolabel tag to form an active beta galactosidase enzyme whose activity can be precisely measured. In this way, the levels of a fusion protein with the prolabel tag can be quantified in cell lysates. […]
parameterMeasured: IKZF2 Degradation (%)
Value expressed in %; do not type the unit.

The cases that follow already have their IKZF2 Degradation (%) on record.
>>> df
                                   compound  numericvalue
0  COc1c(C2=CCN(Cc3ccccc3)CC2)ccc2c1CN(C1CCC(=O)NC1=O)C2=O (stereo not drawn)            42
1  CO[C@H]1CC[C@H](CN2CCC(c3ccc4c(c3Cl)CN(C3CCC(=O)NC3=O)C4=O)CC2)CC1 (stereo partly drawn)            30
2  O=C1CCC(N2Cc3cc(C4CCN(Cc5ccncc5)CC4)c(F)cc3C2=O)C(=O)N1 (stereo not drawn)            42
3  O=C1CCC(N2Cc3nc(C4CCN(Cc5ccccc5)CC4)ccc3C2=O)C(=O)N1 (stereo not drawn)            33

## Task // lookup IKZF2 Degradation (%) for Cc1c(C2CCN(Cc3ccccc3)CC2)ccc2c1CN(C1CCC(=O)NC1=O)C2=O (stereo not drawn)
## Result 59

## Task // lookup IKZF2 Degradation (%) for O=C1CCC(N2Cc3c(ccc(C4CCN(Cc5ccccc5)CC4)c3F)C2=O)C(=O)N1 (stereo not drawn)
## Result 72

###

AC50 values by entry
- studyTarget: IKZF2 (Homo sapiens, UniProt Q96SW2+Q9UKS7)
- Construct: expressed in transfected cells
- assayRemarks: Prolabel quantification of IKZF2 protein levels in 293GT cells
- Type: cell-based
- cond: Pro-label assay in 293GT cells; read-out: IKZF2 Degradation AC50
Value expressed in nM; do not type the unit.

The cases that follow already have their AC50 on record.
>>> df
                                   compound  numericvalue
0  O=C1CCC(N2Cc3nc(C4CCN(Cc5ccccc5)CC4)ccc3C2=O)C(=O)N1 (stereo not shown) [Compound I-1]           260
1  O=C1CCC(N2Cc3c(ccc(C4CCN(Cc5ccccc5)CC4)c3F)C2=O)C(=O)N1 (stereo not shown) [Compound I-3]             6
2  O=C1CCC(N2Cc3cc(C4CCN(Cc5ccncc5)CC4)c(F)cc3C2=O)C(=O)N1 (stereo not shown) [Compound I-16]           560

## Task // lookup AC50 for COc1c(C2=CCN(Cc3ccccc3)CC2)ccc2c1CN(C1CCC(=O)NC1=O)C2=O (stereo not shown) [Compound I-20]
## Result 200

## Task // lookup AC50 for Cc1c(C2CCN(Cc3ccccc3)CC2)ccc2c1CN(C1CCC(=O)NC1=O)C2=O (stereo not shown) [Compound I-5]
## Result 110

## Task // lookup AC50 for CO[C@H]1CC[C@H](CN2CCC(c3ccc4c(c3Cl)CN(C3CCC(=O)NC3=O)C4=O)CC2)CC1 (stereo partly shown) [Compound I-17]
## Result 75

###

AC50 values by entry
- studyTarget: IKZF1 (Homo sapiens, UniProt Q13422+Q96SW2)
- Construct: expressed in transfected cells
- Sequence (Q13422 whole entry): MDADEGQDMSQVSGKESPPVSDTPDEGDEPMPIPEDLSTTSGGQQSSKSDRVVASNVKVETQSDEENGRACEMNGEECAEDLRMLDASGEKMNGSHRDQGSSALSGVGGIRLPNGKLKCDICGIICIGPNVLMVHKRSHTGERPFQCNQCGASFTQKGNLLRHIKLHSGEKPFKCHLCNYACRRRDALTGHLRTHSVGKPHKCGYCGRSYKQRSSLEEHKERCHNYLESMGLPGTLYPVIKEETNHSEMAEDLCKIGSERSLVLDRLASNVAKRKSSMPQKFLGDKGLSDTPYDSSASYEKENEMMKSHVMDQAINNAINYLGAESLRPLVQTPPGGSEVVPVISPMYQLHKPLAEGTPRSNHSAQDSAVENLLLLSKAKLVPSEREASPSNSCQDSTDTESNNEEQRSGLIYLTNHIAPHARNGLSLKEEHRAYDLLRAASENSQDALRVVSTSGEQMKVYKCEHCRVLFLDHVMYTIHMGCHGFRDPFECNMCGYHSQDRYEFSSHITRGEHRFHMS
- Sequence (Q96SW2 whole entry): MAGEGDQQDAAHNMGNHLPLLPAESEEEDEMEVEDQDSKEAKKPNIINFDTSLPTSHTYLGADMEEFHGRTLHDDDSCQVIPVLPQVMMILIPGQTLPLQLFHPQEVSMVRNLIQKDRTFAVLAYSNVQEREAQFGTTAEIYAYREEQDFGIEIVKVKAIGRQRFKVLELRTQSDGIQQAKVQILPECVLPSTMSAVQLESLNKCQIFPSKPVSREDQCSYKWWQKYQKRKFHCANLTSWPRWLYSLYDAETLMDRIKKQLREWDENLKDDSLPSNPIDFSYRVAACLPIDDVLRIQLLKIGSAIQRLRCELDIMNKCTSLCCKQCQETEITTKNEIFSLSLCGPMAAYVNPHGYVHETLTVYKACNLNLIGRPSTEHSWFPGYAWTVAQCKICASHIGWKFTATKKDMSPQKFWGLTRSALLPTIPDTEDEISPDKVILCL
- Sequence (Q16531 whole entry partner): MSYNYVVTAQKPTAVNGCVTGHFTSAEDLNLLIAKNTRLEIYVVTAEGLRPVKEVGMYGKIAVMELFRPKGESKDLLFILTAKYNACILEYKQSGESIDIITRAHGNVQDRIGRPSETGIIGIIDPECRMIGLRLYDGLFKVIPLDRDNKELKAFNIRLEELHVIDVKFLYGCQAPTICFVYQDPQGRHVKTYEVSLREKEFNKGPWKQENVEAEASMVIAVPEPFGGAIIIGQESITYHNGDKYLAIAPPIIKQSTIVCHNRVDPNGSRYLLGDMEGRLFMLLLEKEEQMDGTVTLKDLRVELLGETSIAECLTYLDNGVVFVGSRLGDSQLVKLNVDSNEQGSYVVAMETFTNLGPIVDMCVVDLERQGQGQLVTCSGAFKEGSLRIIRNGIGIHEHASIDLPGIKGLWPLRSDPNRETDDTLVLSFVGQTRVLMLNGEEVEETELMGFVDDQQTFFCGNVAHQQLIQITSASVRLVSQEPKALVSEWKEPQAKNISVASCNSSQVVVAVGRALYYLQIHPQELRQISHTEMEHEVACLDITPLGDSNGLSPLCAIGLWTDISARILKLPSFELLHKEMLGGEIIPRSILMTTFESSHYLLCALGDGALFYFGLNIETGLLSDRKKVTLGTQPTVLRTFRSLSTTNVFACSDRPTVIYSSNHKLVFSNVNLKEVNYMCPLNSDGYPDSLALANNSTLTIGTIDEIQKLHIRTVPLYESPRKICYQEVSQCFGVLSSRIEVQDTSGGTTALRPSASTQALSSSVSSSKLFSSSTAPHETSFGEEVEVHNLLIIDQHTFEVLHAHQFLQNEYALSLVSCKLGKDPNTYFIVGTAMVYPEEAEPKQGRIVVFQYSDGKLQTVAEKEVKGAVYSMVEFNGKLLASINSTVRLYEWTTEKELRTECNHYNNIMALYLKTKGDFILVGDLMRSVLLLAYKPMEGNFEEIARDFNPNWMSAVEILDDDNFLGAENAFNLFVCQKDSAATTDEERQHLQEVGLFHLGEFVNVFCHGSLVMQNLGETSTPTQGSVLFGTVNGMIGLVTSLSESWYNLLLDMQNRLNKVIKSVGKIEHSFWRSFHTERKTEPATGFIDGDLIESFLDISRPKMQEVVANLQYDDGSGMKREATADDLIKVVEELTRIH
- assayRemarks: Prolabel quantification of IKZF1 protein levels in 293GT cells
- Format: cell-based
- cond: Pro-label assay in 293GT cells; read-out: IKZF1 Degradation AC50
Value expressed in µM; do not type the unit.

In [3]: df
Out[3]:
                                   compound  parametermeasured  numericvalue
0  CO[C@H]1CC[C@H](CN2CCC(c3ccc4c(c3Cl)CN(C3CCC(=O)NC3=O)C4=O)CC2)CC1 (stereo partly shown)               AC50          0.13

## Task // lookup AC50 for COc1c(C2=CCN(Cc3ccccc3)CC2)ccc2c1CN(C1CCC(=O)NC1=O)C2=O (stereo not shown)
## Result 0.066

## Task // lookup AC50 for O=C1CCC(N2Cc3cc(C4CCN(Cc5ccncc5)CC4)c(F)cc3C2=O)C(=O)N1 (stereo not shown)
## Result 7.6

###

- studyTarget: IKZF1 (Homo sapiens, UniProt Q13422+Q96SW2)
- Construct: expressed in transfected cells
- assayRemarks: Prolabel quantification of IKZF1 protein levels in 293GT cells
- Assay type: cell-based
- cond: Pro-label assay in 293GT cells; % degradation is at 10 μM
parameterMeasured: IKZF1 Degradation (%)
Value expressed in %; do not type the unit.

The cases that follow already have their IKZF1 Degradation (%) on record.
In [3]: df
Out[3]:
                                   compound                               studytarget  numericvalue
0  O=C1CCC(N2Cc3cc(C4CCN(Cc5ccncc5)CC4)c(F)cc3C2=O)C(=O)N1 (stereo not shown) [Compound I-16]  IKZF1 (Homo sapiens, UniProt Q13422+Q96SW2)            22
1  COc1c(C2=CCN(Cc3ccccc3)CC2)ccc2c1CN(C1CCC(=O)NC1=O)C2=O (stereo not shown) [Compound I-20]  IKZF1 (Homo sapiens, UniProt Q13422+Q96SW2)            40

## Task // lookup IKZF1 Degradation (%) for CO[C@H]1CC[C@H](CN2CCC(c3ccc4c(c3Cl)CN(C3CCC(=O)NC3=O)C4=O)CC2)CC1 (stereo partly shown) [Compound I-17]
## Result 40

## Task // lookup IKZF1 Degradation (%) for Nc1cccc2c1C(=O)N(C1CCC(=O)NC1=O)C2=O (stereo not shown) [Pomalidomide, reference compound]
## Result 80

Values were extracted from patent US12479817B2.
